# method.description: Ototoxicity against C57BL/6 mouse cochlea hair cells assessed as reduction in cell viability at 0.1 mM incubated for 23 hrs by FITC-phalloidin staining-based assay
# Type: toxicity
# measurement.context: read-out: INH
Entries and their measured cytotoxicity at 23 h, 100 µM follow.

compound | cytotoxicity at 23 h, 100 µM
NC[C@@H]1O[C@H](O[C@H]2[C@@H](O)[C@H](O[C@@H]3[C@@H](O)[C@H](N)C[C@H](N)[C@H]3O[C@H]3O[C@H](CN)[C@@H](O)[C@H](O)[C@H]3N)O[C@@H]2CO)[C@H](N)[C@@H](O)[C@@H]1O [FRAMYCETIN] | 20%
NC[C@@H]1O[C@H](O[C@H]2[C@@H](O)[C@H](O[C@@H]3[C@@H](O)[C@H](N)C[C@H](N)[C@H]3O[C@H]3O[C@H](CO)[C@@H](O)[C@H](O)[C@H]3N)O[C@@H]2CO)[C@H](N)[C@@H](O)[C@@H]1O [PAROMOMYCIN] | 4%
